Test: Confirmatory qHTS for VERO E6 Cytotoxicity Assay: Counterscreen for SARS-CoV-2 CPE Assay (AID 1508605); further: nearly all actives have a fitted effect of over 60% in size
Details: cell viability luminescence; series mostly up to 20 µM
Records with an inconclusive call do not appear. The source made the active and inactive calls. The call rests on the fitted dose curve. Numbered stars: 1 amine (or outer) side, 2 acyl side, 3 side chain; on linkers, the order of the positions; unused ones are H or OH. Bridge positions count the residues as written; N and C are the ends. Square brackets hold non-standard residues; d marks the D form. Peptide text beside a SMILES is read from it. * marks the point of attachment. ξ: configuration not given here. pTerphenylCO(4''-OnC5H11) = CCCCCOc1ccc(-c2ccc(-c3ccc(C(=O)*)cc3)cc2)cc1; ξOrn(4,5-diOH) = O=C(C(CC(O)C(O)N[*:3])N[*:1])[*:2]; ξhTyr(βξ-OH,γξ-OH) = NC(C(=O)O)C(O)C(O)c1ccc(O)cc1; ξPro(3ξ-OH,4ξ-Me) = CC1CNC(C(=O)O)C1O; Hyp = O=C(O)[CH]1C[CH](O)CN1; Cbz = O=C(OCc1ccccc1)*; CH2Cl = ClC*
Answer with one of the outcomes active, inactive

Lookup: Name the outcome recorded for C/C(=N\NC(=O)c1cccc(S(=O)(=O)N2CCOCC2)c1)c1cc(Cl)ccc1O in the assay.
Found: active

Lookup: Name the outcome recorded for COc1cc2nc(N3CCCCC3)nc(NC3CCN(Cc4ccccc4)CC3)c2cc1OC in the assay.
Found: active

Lookup: Name the outcome recorded for CNCc1ccc(-c2cc(-c3nc(-c4ccc(S(=O)(=O)C(C)C)cc4)cnc3N)on2)cc1 in the assay.
Found: active

Lookup: Name the outcome recorded for CC(C)C[C@H](NC(=O)CNC(=O)OCc1ccccc1)C(=O)N[C@@H](Cc1ccccc1)C(=O)CCl (Cbz-Gly-Leu-Phe-CH2Cl) in the assay.
Found: inactive

Lookup: Name the outcome recorded for c1ccc2c(-c3cnn4cc(-c5ccc(OCCN6CCOCC6)cc5)cnc34)ccnc2c1 in the assay.
Found: inactive

Lookup: Name the outcome recorded for CCCCCCCCC(=O)N[C@H](CN1CCCC1)[C@H](O)c1ccc2c(c1)OCCO2 in the assay.
Found: inactive

Lookup: Name the outcome recorded for c1ccc(-c2ccc(CNc3nc(-c4ccccn4)nnc3-c3ccccc3)cc2)cc1 in the assay.
Found: active

Lookup: Name the outcome recorded for C=C1Cc2c(Cl)cc3[nH]c4c5c3c2[C@@]2(O)[C@@H]1C[C@@H]2C(C)(C)O[C@H]5C1CC[C@@]2(O)[C@@]35O[C@@H]3[C@H]3OC(C)(C)[C@H]3O[C@H]5CC[C@]2(C)[C@@]41C (some centres not stated) in the assay.
Found: inactive

Lookup: Name the outcome recorded for CO[C@H]1/C=C\C=C(\C)C(=O)NC2=CC(=O)C(NCCN(C)C)=C(C[C@@H](C)C[C@H](OC)[C@H](O)[C@@H](C)/C=C(/C)[C@@H]1OC(N)=O)C2=O in the assay.
Found: active

Lookup: Name the outcome recorded for CCCN1CCN(c2ccc(C(=O)NC3(C(=O)NCC#N)CCCCC3)cc2)CC1 in the assay.
Found: inactive

Lookup: Name the outcome recorded for O=C(/C=C/c1ccccc1)NC(NC(=S)Nc1cccc2cccnc12)C(Cl)(Cl)Cl (configuration not stated) in the assay.
Found: inactive

Lookup: Name the outcome recorded for C=CC(=O)N[C@H]1CCOC[C@H]1Nc1ncc2cc(-c3c(Cl)c(OC)cc(OC)c3Cl)ccc2n1 in the assay.
Found: inactive

Lookup: Name the outcome recorded for O=C1NC(=O)c2cc(Nc3ccc(F)cc3)c(Nc3ccc(F)cc3)cc21 in the assay.
Found: active

Lookup: Name the outcome recorded for CC(C)C[C@H]1C(=O)O[C@H](Cc2ccc(N3CCOCC3)cc2)C(=O)N(C)[C@@H](CC(C)C)C(=O)O[C@H](C)C(=O)N(C)[C@@H](CC(C)C)C(=O)O[C@H](Cc2ccc(N3CCOCC3)cc2)C(=O)N(C)[C@@H](CC(C)C)C(=O)O[C@H](C)C(=O)N1C in the assay.
Found: inactive

Lookup: Name the outcome recorded for CC(CN(C)C)CN1c2ccccc2Sc2ccc(C(F)(F)F)cc21 (configuration not stated) in the assay.
Found: inactive

Lookup: Name the outcome recorded for O=C1Nc2nc(-c3c(O)cccc3OCC3CC3)cc([C@@H]3CCCNC3)c2CO1 in the assay.
Found: inactive

Lookup: Name the outcome recorded for CCCc1cc(C)[nH]c(=O)c1CNC(=O)c1cc(-c2ccnc(N3CCN(C)CC3)c2)cc2c1cnn2C(C)C in the assay.
Found: inactive

Lookup: Name the outcome recorded for C=C1C(=O)O[C@H]2C3=C(C)CCC[C@]3(C)C(=O)C[C@@H]12 in the assay.
Found: active

Lookup: Name the outcome recorded for C[C@@H]1O[C@@H](O[C@@H]2[C@@H](O)[C@H](O[C@@H]3[C@@H](O)[C@@H](O)[C@H](O[C@H]4[C@H](OC(=O)[C@]56CCC(C)(C)C[C@H]5C5=CCC7[C@@]8(C)C[C@H](O)[C@H](O[C@@H]9O[C@@H](C)[C@H](O)[C@@H](O)[C@H]9O)[C@@](C)(CO)C8CC[C@@]7(C)[C@]5(C)C[C@H]6O)O[C@H](C)[C@H](O)[C@@H]4O)O[C@H]3C)OC[C@H]2O)[C@H](O)[C@H](O)[C@H]1O (some centres not stated) in the assay.
Found: active

Lookup: Name the outcome recorded for CN(C)CCC=C1c2ccccc2C(C)(C)c2ccccc21 in the assay.
Found: inactive

Lookup: Name the outcome recorded for CCCCCOc1ccc(-c2ccc(-c3ccc(C(=O)NC4CC(O)C(O)NC(=O)C5C(O)C(C)CN5C(=O)C(C(C)O)NC(=O)C(C(O)C(O)c5ccc(O)cc5)NC(=O)C5CC(O)CN5C(=O)C(C(C)O)NC4=O)cc3)cc2)cc1 (stereo not drawn) ({pTerphenylCO(4''-OnC5H11)}-[ξOrn(4,5-diOH)]T[Hyp][ξhTyr(βξ-OH,γξ-OH)]T[ξPro(3ξ-OH,4ξ-Me)]; lactam 1-C; configuration not given here) in the assay.
Found: inactive

Lookup: Name the outcome recorded for N#Cc1ccc2[nH]cc(CCCCN3CCN(c4ccc5oc(C(N)=O)cc5c4)CC3)c2c1 in the assay.
Found: inactive

Lookup: Name the outcome recorded for COc1ccc(NS(=O)(=O)c2sc3ccc(Cl)cc3c2C)cc1N1CCNCC1 in the assay.
Found: inactive

Lookup: Name the outcome recorded for COC(=O)CC[C@@H](C)C1CCC2C3CCC4C[C@H](OC(C)=O)CCC4(C)C3C[C@H](O)C21C (some centres not stated) in the assay.
Found: inactive

Lookup: Name the outcome recorded for CC1OC2OC3C(OCC(O)C3O)OC(=O)C34CCC(C)(C)CC3C3=CCC5C6(C)CC(O)C(OC7OC(CO)C(O)C(O)C7OC7OCC(OC(=O)CC(C)(O)CC(=O)OC1C(OC1OCC(O)C(O)C1O)C2O)C(O)C7O)C(C)(CO)C6CCC5(C)C3(C)CC4O (configuration not stated) in the assay.
Found: active

Lookup: Name the outcome recorded for CN(C)CCN(Cc1ccc(-c2ccc(CNCCc3ccccc3)cc2)cc1)C(=O)CCC1CCCC1 in the assay.
Found: active

Lookup: Name the outcome recorded for Nc1nc(Nc2ccc3c(c2)CC[C@@H](N2CCCC2)CC3)nn1-c1cc2c(nn1)-c1ccccc1CCC2 in the assay.
Found: active
